Measured Relative activity values are reported for all entries that follow.
System: Comparative enzyme EP 1152054 SEQ ID NO: 1
Assay: Relative activity of dehydrogenase for various substrates, with cofactor regeneration, monophasic liquid system (Example 2)
Assay type: biochemical
Conditions: cofactor regeneration with glucose and glucose dehydrogenase

Solved entries:
// Relative activity lookup, compound = O=C(CCl)c1cccc(Cl)c1 , result: 47.1

Note to self: Relative activity recorded for O=C(CCl)c1ccc(F)cc1 was 50.4

---
Entry CC(=O)c1ccccc1 — recorded Relative activity = 0.7

O=C(CCl)c1ccc(Cl)cc1 has a reported Relative activity of 62.5

###

System: ADH-3 enzyme SEQ ID NO: 2
Experiment: Relative activity of dehydrogenase for various substrates, with cofactor regeneration, monophasic liquid system (Example 2)
Assay type: biochemical, Candida
Details: cofactor regeneration with glucose and glucose dehydrogenase
Reported Relative activity values for the following compounds.
Simply state the number, no unit and no words.

Briefly, Relative activity measured for O=C(CCl)c1cccc(Cl)c1 : 100

New cases:
// sample O=C(CCl)c1ccc(F)cc1 , its Relative activity was 99.5

# compound O=C(CCl)c1ccc(Cl)cc1 ; its Relative activity = 18.9

Measured Relative activity of CC(=O)c1ccccc1 : 8.9
